- TARGET_OF_ASSAY: human ether-à-go-go-related gene (hERG) potassium channel (human, UniProt Q12809);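 also: peak tail current of the secondary pulse compared with the same well before compound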
- Sequence (Q12809 whole entry, looked up): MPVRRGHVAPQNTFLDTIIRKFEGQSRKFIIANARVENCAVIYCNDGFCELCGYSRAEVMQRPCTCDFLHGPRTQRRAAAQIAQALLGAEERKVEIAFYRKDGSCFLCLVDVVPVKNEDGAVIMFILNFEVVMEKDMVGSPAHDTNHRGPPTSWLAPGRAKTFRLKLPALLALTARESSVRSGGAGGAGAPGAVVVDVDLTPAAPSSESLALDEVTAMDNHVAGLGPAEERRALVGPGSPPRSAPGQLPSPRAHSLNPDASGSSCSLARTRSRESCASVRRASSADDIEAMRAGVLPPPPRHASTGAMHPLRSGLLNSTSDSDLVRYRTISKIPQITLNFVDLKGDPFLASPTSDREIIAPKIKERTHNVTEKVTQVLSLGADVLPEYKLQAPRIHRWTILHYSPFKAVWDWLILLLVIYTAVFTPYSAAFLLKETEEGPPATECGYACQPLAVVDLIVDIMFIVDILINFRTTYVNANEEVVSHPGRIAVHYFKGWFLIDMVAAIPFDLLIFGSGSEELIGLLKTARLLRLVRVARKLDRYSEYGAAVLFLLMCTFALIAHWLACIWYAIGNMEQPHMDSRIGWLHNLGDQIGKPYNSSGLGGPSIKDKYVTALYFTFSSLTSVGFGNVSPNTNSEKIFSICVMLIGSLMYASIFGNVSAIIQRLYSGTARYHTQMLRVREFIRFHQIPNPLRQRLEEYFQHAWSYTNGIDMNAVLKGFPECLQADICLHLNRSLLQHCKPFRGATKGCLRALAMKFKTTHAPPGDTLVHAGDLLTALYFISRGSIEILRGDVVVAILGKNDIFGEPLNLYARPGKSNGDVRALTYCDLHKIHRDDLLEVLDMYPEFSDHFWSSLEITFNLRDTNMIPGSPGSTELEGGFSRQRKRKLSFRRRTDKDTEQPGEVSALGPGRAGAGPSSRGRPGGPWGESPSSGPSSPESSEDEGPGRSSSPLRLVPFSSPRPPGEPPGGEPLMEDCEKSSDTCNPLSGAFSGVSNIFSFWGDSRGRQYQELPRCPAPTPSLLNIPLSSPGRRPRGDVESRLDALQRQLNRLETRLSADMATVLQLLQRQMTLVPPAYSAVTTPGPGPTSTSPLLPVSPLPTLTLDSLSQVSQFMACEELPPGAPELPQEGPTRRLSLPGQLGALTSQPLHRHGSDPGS
- PROCEDURE_SUMMARY: primary screen, population patch clamp on CHO cells stably expressing hERG; higher = less effect of the substance
Screen size: about 310,000 compounds; about 14,000 (4.5%) showed an effect of 50% or more. Effects have a minus sign here. The sample as a whole holds a higher share of strong results than the screen did.
ATTRIBUTE_MEASURED: hERG current change (%, negative = inhibition) at 10uM (%)

# COMPOUND, OBSERVED_MEASUREMENT
data = [
    ("COc1ccc(N2CCN(C(=O)C3CCN(S(=O)(=O)c4ccc(F)cc4)CC3)CC2)cc1", -48.3),
    ("CC(C)c1ccc(S(=O)(=O)N2CCN(C(=O)C3CCN(C(=O)c4ccc(F)cc4)CC3)CC2)cc1", -53.7),
    ("Cc1ccc(C)c(S(=O)(=O)N2CCN(C(=O)C3CCN(C(=O)c4ccc(F)cc4)CC3)CC2)c1", -30.6),
    ("CC(=O)Nc1ccc(OCC(O)CN2CCN(c3cccc(Cl)c3)CC2)cc1 (stereo not shown)", -25.2),
    ("N#Cc1ccc(N2CCOCC2)c([N+](=O)[O-])c1", -21.7),
    ("CC(C)c1ccc(S(=O)(=O)N2CCN(C(=O)C3CCCC3)CC2)cc1", 2.78),
    ("Cn1c2c(c(=O)n(C)c1=O)C(NC(=O)c1ccco1)(C(F)(F)F)C(=O)N2 (stereo not shown)", 16.3),
    ("CCCCN(C)C(=O)c1cn(CC)c2ccc(S(=O)(=O)N(C)C)cc2c1=O", 8.08),
    ("CC(=O)N1CCC(C(=O)N2CCN(S(=O)(=O)c3ccc(F)cc3)CC2)CC1", -1.33),
    ("O=C(NC1CCCCC1)C(c1ccccn1)N(C(=O)c1csnn1)c1ccccc1 (stereo not shown)", 1.6),
    ("O=C(c1ccc(F)cc1)N1CCC(C(=O)N2CCN(S(=O)(=O)c3ccccc3Br)CC2)CC1", -32.6),
    ("CCc1ccc(N(CC(=O)NC(C)(C)C)C(=O)CNC(=O)c2cccs2)cc1", 15.5),
    ("Cc1ccc(S(=O)(=O)N2CCN(C(=O)c3ccco3)CC2)c(C)c1", -7.22),
    ("Cn1c(N)c(C(=O)COC(=O)/C=C/c2ccc(OC(F)F)cc2)c(=O)n(C)c1=O", 3.23),
    ("CC(=O)Nc1ccc(OCC(O)CN2CCN(c3ccc(C)c(Cl)c3)CC2)cc1 (stereo not shown)", -27.7),
    ("CCOC(=O)N1CCN(C(=O)Cn2c(C)cc3ccccc3c2=O)CC1", 3.68),
    ("Cc1ccc(S(=O)(=O)N2CCN(C(=O)COC(=O)c3ccc(Br)o3)CC2)c(C)c1", -10.3),
    ("COc1ccc(Cl)cc1NC(=O)CSc1nnc(CNC(=O)c2cccs2)o1", -39.8),
    ("CC(=O)Nc1ccc(OCC(O)CN2CCN(c3cc(Cl)ccc3C)CC2)cc1 (stereo not shown)", -30.8),
]
